# TARGET_UNDER_TEST: Akt3 (Homo sapiens, UniProt Q9Y243)
# Sequence (Q9Y243 whole entry): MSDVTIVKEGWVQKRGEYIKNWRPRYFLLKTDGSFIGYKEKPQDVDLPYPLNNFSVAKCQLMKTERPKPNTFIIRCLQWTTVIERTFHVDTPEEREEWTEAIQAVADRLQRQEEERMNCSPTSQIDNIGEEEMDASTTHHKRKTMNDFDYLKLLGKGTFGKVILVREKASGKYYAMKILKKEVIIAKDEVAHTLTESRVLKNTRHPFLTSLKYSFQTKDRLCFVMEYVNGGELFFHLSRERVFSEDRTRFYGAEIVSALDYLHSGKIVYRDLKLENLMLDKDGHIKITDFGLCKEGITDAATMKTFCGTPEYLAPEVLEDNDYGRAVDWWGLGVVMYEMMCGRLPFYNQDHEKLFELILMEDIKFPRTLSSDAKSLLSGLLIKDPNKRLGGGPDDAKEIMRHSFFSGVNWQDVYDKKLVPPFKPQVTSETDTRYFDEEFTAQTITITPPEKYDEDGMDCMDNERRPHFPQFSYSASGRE
# MEASUREMENT_NOTES: STK HTRF KinEASE activity-based assay (IC50)
# CONDITION_DESCRIPTION: read-out: IC50 Akt3; HTRF, ATP at KM, 1 h preincubation
REPORTED_PROPERTY: IC50

Supply IC50 value. Item: C=CC(=O)Nc1ccc2[nH]c(=O)n(C3CCN(Cc4ccc(-c5ncc(C(=O)O)cc5-c5ccccc5)cc4)CC3)c2c1
6.45 µM

----------
# System: Ba/F3^myr-Akt2 cells
# MEASUREMENT_NOTES: CellTiter-Glo cell viability assay
# CONDITION_DESCRIPTION: Mus musculus, read-out: CTG BaF3myr-Akt2, Mean, mean of replicates
REPORTED_PROPERTY: EC50
Remember to quote the unit after the number.

Some entries whose results are on file:
C=CC(=O)Nc1ccc2[nH]c(=O)n(C3CCN(Cc4ccc(-c5ncc(Cc6cnn(C)c6)cc5-c5ccccc5)cc4)CC3)c2c1 [compound 12] = 3050 nM
C=CC(=O)Nc1ccc2[nH]c(=O)n(C3CCN(Cc4ccc(-c5ncc(Cc6ccc(N)cc6)cc5-c5ccccc5)cc4)CC3)c2c1 [compound 19] = 2890 nM
C=CC(=O)Nc1ccc2[nH]c(=O)n(C3CCN(Cc4ccc(-c5ncc(C(=O)OC)cc5-c5ccccc5)cc4)CC3)c2c1 [compound 5] = 2710 nM

We next turn to a different compound, shown below.
Report its EC50 with Ba/F3^myr-Akt2 cells as the test system: C=CC(=O)Nc1ccc2[nH]c(=O)n(C3CCN(Cc4ccc(-c5ncc(C(=O)Nc6cccc(N)c6)cc5-c5ccccc5)cc4)CC3)c2c1 [compound 18]
1480 nM

----------
# TARGET_UNDER_TEST: Akt1 (Homo sapiens, UniProt P31749)
# Sequence (P31749 whole entry): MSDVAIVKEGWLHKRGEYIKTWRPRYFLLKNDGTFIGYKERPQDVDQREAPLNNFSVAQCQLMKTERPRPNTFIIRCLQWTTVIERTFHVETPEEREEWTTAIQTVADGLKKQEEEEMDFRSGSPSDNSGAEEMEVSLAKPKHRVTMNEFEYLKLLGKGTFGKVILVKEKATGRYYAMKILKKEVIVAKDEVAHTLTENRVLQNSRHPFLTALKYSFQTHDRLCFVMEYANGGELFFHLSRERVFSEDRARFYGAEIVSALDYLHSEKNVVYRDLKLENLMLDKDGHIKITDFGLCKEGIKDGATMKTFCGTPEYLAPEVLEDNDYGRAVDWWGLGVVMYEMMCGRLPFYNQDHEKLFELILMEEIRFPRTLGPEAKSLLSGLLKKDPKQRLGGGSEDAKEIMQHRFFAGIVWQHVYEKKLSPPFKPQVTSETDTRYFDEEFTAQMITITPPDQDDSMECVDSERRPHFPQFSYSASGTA
# MEASUREMENT_NOTES: STK HTRF KinEASE activity-based assay (IC50)
# CONDITION_DESCRIPTION: biochemical activity based assay, log units
REPORTED_PROPERTY: Log ratio IC50 [Akt] / IC50 [Akt], Akt1 / Akt2

Some entries whose results are on file:
C=CC(=O)Nc1ccc2[nH]c(=O)n(C3CCN(Cc4ccc(-c5ncc(Cc6cccc(N)c6)cc5-c5ccccc5)cc4)CC3)c2c1 [compound 17] = 1.33
C=CC(=O)Nc1ccc2[nH]c(=O)n(C3CCN(Cc4ccc(-c5ncc(Cc6ccc(N)nc6)cc5-c5ccccc5)cc4)CC3)c2c1 [compound 20] = 0.97

We next turn to a different molecule, shown below.
Report its Log ratio IC50 [Akt] / IC50 [Akt], Akt1 / Akt2 with Akt1 (Homo sapiens, UniProt P31749) as the test system: C=CC(=O)Nc1ccc2[nH]c(=O)n(C3CCN(Cc4ccc(-c5ncc(CO)cc5-c5ccccc5)cc4)CC3)c2c1 [compound 3]
-0.71

----------
# System: Ba/F3^myr-Akt1 cells
# MEASUREMENT_NOTES: CellTiter-Glo cell viability assay
# CONDITION_DESCRIPTION: Mus musculus, read-out: CTG BaF3myr-Akt1, Mean, mean of replicates
REPORTED_PROPERTY: EC50 (µM)
State just the number; it will be interpreted in µM.

C=CC(=O)Nc1ccc2[nH]c(=O)n(C3CCN(Cc4ccc(-c5ncc(Cc6ccc(C)o6)cc5-c5ccccc5)cc4)CC3)c2c1 = 26.7
C=CC(=O)Nc1ccc2[nH]c(=O)n(C3CCN(Cc4ccc(-c5ncc(C(=O)Nc6cccc(N)c6)cc5-c5ccccc5)cc4)CC3)c2c1 = 17.8
C=CC(=O)Nc1ccc2[nH]c(=O)n(C3CCN(Cc4ccc(-c5nc(C)c(=O)[nH]c5-c5ccccc5)cc4)CC3)c2c1 [15a, reference compound] = 7.21
C=CC(=O)Nc1ccc2[nH]c(=O)n(C3CCN(Cc4ccc(-c5ncccc5-c5ccccc5)cc4)CC3)c2c1 = 1.79
C=CC(=O)Nc1ccc2[nH]c(=O)n(C3CCN(Cc4ccc(-c5ncc(CO)cc5-c5ccccc5)cc4)CC3)c2c1 = 28.3

Supply EC50 value. Item: C=CC(=O)Nc1ccc2[nH]c(=O)n(C3CCN(Cc4ccc(-c5ncc(Cc6ccc(N)nc6)cc5-c5ccccc5)cc4)CC3)c2c1
9.48

Supply EC50 value. Item: C=CC(=O)Nc1ccc2[nH]c(=O)n(C3CCN(Cc4ccc(-c5ncc(Cc6ccc(N)cc6)cc5-c5ccccc5)cc4)CC3)c2c1
12.7
